experiment: soluble on expression in E. coli; label from the status in PepcDB or PDB records
result-type: soluble on expression in E. coli

Please review the following examples before continuing.
record-sequence	soluble on expression in E. coli
MGSDKIHHHHHHMMTQLSAPTLTKDPLTTQDRQIIATIVNQSDYSKNCKPEDVVTIWISEDDTTVWVKMIHGYARYHKQSFKRAVAEVKASLSAPVKCNHKEERELKQAAEKIGLLGDCDWLSLSVQYYPDKVIGHAGCYTSQKPQLLTPLAEWDFTLPKWNMPAAICPDCGGHGCGNCGYRGTRAEDLCKPVDGYRLTYVGRTDLQTAHNVYLDGEFLGILFKVRNADELWENDPKTYYWRCGDGVRYWSVKEAVEVLSRTTAPIELPQVCRELVAA	not soluble
LVIVTDPHQRIEWVNAAFEQQTGHSGPSVRGQPLCAVLQGEPAPGGCGDRLRAMLAEGRTARAEVEATAACGRRFWLDVSLQPLLDDEGALDGYMAVASDIT	not soluble
MSLYDPAEKYFNCTDIQRAFFEAGIKLGAIFHQYTGIPVNSENASMAEEFIERSTMIQPFVENVRISINNVKRSSGTYSYSSLNEKMLHAEVLINYNGKKVLGVLNYDEGLDYPVMYAKEVLEGHHHHHH	soluble
MKYNNHDKIRDFIIIEAYMFRFKKKVKPEVDMTIKEFILLTYLFHQQENTLPFKKIVSDLCYKQSDLVQHIKVLVKHSYISKVRSKIDERNTYISISEEQREKIAERVTLFDQIIKQFNLADQSESQMIPKDSKEFLNLMMYTMYFKNIIKKHLTLSFVEFTILAIITSQNKNIVLLKDLIETIHHKYPQTVRALNNLKKQGYLIKERSTEDERKILIHMDDAQQDHAEQLLAQVNQLLADKDHLHLVFE	soluble

API: the following record is the query input.
If you can, please state the reported soluble on expression in E. coli value of MVRNLVIDITKKPTQNIPPTNEIIEEAITELNVDELLDRLFEKDESGEVITPSRIAKMLEEKAFEIYKEYEKQVREAYLSAGYSREKLEQSFQQARFSRGGKAFEIIFTKLLNKFGIRYEHDRVIKIYDYITEGEKPAFIIPSVRTFLNDPSSAILITVKRKVRERWREAVGEAQILRNKFGDEINFWFVGFDEEFTIYSAIAMLDNGIDRVYVIDGRYDSLIEEIKRISDPNFNEDKYIQKIRRFSDIFDDIIQFLNKHGNKKRGKQLTLV .
soluble

====

assay: soluble on expression in E. coli; label from the status in PepcDB or PDB records
result-type: soluble on expression in E. coli

Please review the following examples before continuing.
record-sequence	result-type	value-measured
MSLKRITMQDIADRLNISKNSVSQALRGKEGVSKETRELVKRVAKEMGYEYPASRAKSRGKPPRQIALIASDRTFSLKFFGEIYLSIEQEALSHGMKLHIQSVNKEQKERLLLPSFIEEKQVDGVIVLSHISTEYIQQIVATGIPTVLVDHHHPNIPADAVLTNNRFGAYVAVQHLLELNHTDIAFVGDVNYSPSYQERYEGYLLALKDYGVKPNEEWMFCQAQEDETVIAGYIRELKRQPTAWFCVNDGLGFFVSTGLQQYGLKVPDDVSVCSFDNGQLSQIATPKITTVDIDLKRYGKRAVELLRWRWDNPNEPFQEVLLSTKLIKRESTAAKPTREGHHHHHH	soluble on expression in E. coli	soluble
MEVTDVRLRRVNTDGRMRAIASITLDHEFVVHDIRVIDGNNGLFVAMPSKRTPDGEFRDITHPINSSTRGKIQDAVLNEYHRLGDTEALEFEEAGAS	soluble on expression in E. coli	soluble
MEQIGLIGYGSMADMIARQLLKHEQIKENELFIETRTKGERLRALMSDYPNVSADPLENWANTCQLILICVPPLHVIETMRRLYPYVNRNTHIVSIAAGVPLRLLEAETEAGISRVIPAITSEAEAGISLVVHSEALAAEKKERLNELLSVFSRVREIKESNLDVASNLTSSAPGFIAAIFEELALSAVRNSSLSKEEAFDFLIHSLYGTGKMLIEKNMSFEETLERVATKGGITGEGAEVIHASVPDVFDEVFERTLRKYELLTEQVGKQTLEHHHHHH	soluble on expression in E. coli	soluble
MEQIHGGDSNSGGGGGGSSRNDEISVTRASRFDALPEDCISKVISHTSPRDACVVASVSKSVKSAAQSDLVWEMFLPSEYSSLVLQSANHLSKKEIFLSLADNSVLVENGKKSFWVEKASGKKCYMLSAMELTIIWGDSPAYWKWITVPESKFEKVAELRNVCWFEVRGKISCGMLSKGTHYSVYVVFKTANGRSYGFDLVPVEAGVGFVGKVATKKSVYFESGNADSRSATSHYSGISEEEEEVEGERERGMNVVGPKERVDGWSEVELGKFYINNGGCGDDGSDEIEISIMETQNGNWKSGLIIQGIEIRPERSN	soluble on expression in E. coli	soluble
MRAIDLNSDLGESFGAWSMGDDAAMLDIVTSANVACGFHAGDPAGILRTLKAAAAKNVTIGAHVSYPDKVGFGRRNMDVASDELTADVIYQIGSLQGLAKAAGTSVRYVKPHGALYNTIAHDRRQAMAVIEAIRAIDPALVLVALAGSTLIELARSEGLQCIAEAFADRAYTPQGTLVSRREPGAVLHDPELVAQRMLRLVQSGSIEAIDGSLVRIEADSICVHGDSPAAVEMARELRRVLEQASTSLQPFAGKRSLEHHHHHH	soluble on expression in E. coli	not soluble
MGSDKIHHHHHHMPQYTVYLAPAGYEQDLIDELGPRVIDVRGRLVRASGGPRHAAWAQNIWLDPVEMRIGSIGDAATRLKGIQRNWFLHAVDHHRRAALIAGKLPHVSARPHVFGTPAPTAPLGSWTLWEHDLVIASARCSSPFPDGEVHFVENRIDPPTRAYLKLWETFTRLGVQPAPGELCLDMGSCPGGWTWVLAGLGARVFSVDKADIAPHIAAMPNVNFCTGSAFGLDPQHAGAVDWFFSDVICYPDRLLATVQRWLERGQCRNFVCTLKFQATTDHATAAAFAAIPGSQLFHLAHNKHELTWVLLRDKA	soluble on expression in E. coli	not soluble

API: the following record is the query input.
If you can, please state the reported soluble on expression in E. coli value of MIYQKQRNTAETQLNISISDDQSPSHINTGVGFLNHMLTLFTFHSGLSLNIEAQGDIDVDDHHVTEDIGIVIGQLLLEMIKDKKHFVRYGTMYIPMDETLARVVVDISGRPYLSFNASLSKEKVGTFDTELVEEFFRAVVINARLTTHIDLIRGGNTHHEIEAIFKAFSRALGIALTATDDQRVPSSKGVIE .
soluble

Cited source: the DeepSol protein solubility set
